biological target: N-type calcium channel α1B (Cav2.2), β3 and α2δ subunits (Homo sapiens); construct: expressed in transfected cells; experiment: Functional assay, antagonism of N-type calcium channel (FDSS calcium mobilization response to KCl depolarization); format: cell-based; settings: 1 μM compound; FDSS, 50 mM KCl
Sequence (Q00975 whole entry): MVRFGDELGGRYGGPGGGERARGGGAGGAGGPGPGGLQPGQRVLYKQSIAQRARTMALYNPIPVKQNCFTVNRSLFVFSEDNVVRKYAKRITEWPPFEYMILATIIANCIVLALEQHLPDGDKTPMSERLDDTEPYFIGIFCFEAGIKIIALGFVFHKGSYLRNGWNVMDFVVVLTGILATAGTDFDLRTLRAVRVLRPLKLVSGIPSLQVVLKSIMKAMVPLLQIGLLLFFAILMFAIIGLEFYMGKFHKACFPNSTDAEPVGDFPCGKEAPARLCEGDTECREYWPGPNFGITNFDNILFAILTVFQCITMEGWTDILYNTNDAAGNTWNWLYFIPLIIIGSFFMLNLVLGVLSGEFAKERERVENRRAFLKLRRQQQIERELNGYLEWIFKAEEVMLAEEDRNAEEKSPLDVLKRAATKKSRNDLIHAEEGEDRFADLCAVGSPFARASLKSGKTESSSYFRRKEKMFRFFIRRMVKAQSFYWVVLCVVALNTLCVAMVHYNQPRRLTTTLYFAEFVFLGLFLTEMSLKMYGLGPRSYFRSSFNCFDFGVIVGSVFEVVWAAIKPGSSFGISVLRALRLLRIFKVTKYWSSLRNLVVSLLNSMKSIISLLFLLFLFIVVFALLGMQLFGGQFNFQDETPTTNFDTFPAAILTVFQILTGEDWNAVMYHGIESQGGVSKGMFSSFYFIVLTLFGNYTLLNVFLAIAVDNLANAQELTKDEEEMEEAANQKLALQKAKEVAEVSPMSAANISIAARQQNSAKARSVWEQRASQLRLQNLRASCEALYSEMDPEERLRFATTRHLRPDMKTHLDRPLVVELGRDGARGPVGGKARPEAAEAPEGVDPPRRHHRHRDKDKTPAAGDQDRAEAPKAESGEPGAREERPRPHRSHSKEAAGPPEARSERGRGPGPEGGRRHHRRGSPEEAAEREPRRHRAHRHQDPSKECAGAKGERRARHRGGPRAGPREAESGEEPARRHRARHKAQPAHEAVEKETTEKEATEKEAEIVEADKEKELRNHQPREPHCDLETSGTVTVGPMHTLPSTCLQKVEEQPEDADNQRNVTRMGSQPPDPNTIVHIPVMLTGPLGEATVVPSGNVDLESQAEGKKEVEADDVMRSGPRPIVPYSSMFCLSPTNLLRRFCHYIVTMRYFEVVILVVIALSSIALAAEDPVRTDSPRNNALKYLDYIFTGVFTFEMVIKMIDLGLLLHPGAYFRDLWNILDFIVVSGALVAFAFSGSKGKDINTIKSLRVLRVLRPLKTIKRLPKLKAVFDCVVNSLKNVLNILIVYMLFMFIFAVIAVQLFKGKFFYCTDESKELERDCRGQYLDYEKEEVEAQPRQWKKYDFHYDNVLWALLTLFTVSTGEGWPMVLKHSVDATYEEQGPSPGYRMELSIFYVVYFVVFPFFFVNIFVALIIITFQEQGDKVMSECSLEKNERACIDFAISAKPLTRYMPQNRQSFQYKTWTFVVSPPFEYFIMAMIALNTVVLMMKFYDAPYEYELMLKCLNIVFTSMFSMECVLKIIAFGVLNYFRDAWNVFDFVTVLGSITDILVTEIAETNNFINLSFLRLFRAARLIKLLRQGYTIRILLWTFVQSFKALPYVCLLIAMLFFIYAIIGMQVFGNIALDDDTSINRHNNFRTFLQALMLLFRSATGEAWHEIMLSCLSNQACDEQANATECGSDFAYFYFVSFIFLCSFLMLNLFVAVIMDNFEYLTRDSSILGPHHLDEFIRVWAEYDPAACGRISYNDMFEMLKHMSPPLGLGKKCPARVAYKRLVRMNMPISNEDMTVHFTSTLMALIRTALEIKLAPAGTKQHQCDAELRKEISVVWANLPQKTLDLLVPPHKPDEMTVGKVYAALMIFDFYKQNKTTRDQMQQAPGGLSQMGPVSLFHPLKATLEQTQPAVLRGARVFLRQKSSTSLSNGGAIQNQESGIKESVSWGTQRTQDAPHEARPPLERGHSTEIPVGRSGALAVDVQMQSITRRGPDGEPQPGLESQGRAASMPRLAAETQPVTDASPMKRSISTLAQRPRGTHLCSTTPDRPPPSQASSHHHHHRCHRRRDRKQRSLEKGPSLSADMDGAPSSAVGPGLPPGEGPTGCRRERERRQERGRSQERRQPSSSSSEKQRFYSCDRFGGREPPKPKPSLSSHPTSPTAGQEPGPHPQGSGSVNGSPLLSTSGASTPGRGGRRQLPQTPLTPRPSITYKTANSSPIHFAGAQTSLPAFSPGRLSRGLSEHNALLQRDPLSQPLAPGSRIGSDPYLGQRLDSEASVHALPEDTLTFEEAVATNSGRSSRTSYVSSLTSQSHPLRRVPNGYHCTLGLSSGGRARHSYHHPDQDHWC
Sequence (P54284 whole entry partner): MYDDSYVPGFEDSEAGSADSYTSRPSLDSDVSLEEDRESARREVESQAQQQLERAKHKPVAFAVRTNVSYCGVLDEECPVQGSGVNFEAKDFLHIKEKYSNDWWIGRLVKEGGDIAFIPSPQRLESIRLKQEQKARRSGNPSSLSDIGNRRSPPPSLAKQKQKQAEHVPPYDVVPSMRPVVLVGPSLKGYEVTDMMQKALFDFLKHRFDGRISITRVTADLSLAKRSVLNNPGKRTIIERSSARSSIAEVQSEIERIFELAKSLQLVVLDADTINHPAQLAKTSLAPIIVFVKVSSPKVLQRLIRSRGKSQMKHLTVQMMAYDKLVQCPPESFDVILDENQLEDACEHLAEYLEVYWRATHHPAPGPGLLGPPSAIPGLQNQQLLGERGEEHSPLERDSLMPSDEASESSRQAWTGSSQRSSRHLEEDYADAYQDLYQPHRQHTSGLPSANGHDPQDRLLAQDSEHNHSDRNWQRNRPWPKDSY
Sequence (P54289 25-956 partner limits assumed): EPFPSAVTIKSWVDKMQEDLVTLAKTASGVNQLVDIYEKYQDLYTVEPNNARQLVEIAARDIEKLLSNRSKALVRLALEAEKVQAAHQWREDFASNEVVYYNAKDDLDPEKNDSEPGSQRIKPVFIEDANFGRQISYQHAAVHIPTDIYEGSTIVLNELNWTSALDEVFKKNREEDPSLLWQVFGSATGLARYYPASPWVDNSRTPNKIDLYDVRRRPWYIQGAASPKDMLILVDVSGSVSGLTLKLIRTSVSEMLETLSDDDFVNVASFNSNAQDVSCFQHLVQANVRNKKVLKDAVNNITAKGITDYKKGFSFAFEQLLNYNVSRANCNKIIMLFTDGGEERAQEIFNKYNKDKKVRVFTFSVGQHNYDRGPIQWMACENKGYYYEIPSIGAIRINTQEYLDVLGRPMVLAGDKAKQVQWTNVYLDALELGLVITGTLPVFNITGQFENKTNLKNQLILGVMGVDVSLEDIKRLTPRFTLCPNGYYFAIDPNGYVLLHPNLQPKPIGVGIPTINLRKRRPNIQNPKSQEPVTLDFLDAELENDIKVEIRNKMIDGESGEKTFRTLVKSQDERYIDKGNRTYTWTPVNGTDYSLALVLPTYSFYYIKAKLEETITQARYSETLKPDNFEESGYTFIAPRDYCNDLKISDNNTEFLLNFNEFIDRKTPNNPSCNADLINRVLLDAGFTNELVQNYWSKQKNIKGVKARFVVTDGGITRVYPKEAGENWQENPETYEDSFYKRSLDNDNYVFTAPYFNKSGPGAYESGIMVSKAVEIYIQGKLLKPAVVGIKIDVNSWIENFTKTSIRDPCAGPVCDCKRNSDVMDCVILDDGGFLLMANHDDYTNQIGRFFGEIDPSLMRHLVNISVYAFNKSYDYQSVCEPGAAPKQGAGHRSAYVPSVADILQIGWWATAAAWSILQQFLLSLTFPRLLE
Sequence (P54289 957-1103 partner limits assumed): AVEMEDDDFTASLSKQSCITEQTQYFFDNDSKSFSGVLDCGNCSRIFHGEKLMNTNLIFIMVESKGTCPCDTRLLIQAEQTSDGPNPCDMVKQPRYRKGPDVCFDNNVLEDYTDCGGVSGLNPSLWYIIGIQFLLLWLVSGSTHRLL
Reported endpoint: inhibition at 1 µM (%)

- Smiles record: "O=S(=O)(NCCN1CCOCC1)c1ccc(N2Cc3nn(-c4ccccc4OC(F)(F)F)c(-c4ccc(Cl)cc4)c3C2)cc1"
  Reported endpoint: "inhibition at 1 µM"
  Value measured: 57
- Smiles record: "N#Cc1ccc(N2Cc3nn(-c4ccccc4OC(F)(F)F)c(-c4ccc(Cl)cc4)c3C2)cc1"
  Reported endpoint: "inhibition at 1 µM"
  Value measured: 57
- Smiles record: "CCc1ccccc1-n1nc2c(c1-c1ccc(Cl)cc1)CN(C(=O)c1cc(C)on1)C2"
  Reported endpoint: "inhibition at 1 µM"
  Value measured: 63
- Smiles record: "CC(C)(C)OC(=O)N1Cc2nn(-c3ccccc3C(F)(F)F)c(-c3ccc(Cl)cc3)c2C1"
  Reported endpoint: "inhibition at 1 µM"
  Value measured: 60
- Smiles record: "CCc1ccccc1-n1nc2c(c1-c1ccc(Cl)cc1)CN(C(=O)c1ccccn1)C2"
  Reported endpoint: "inhibition at 1 µM"
  Value measured: 58
- Smiles record: "CCc1ccccc1-n1nc2c(c1-c1ccc(Cl)cc1)CN(C(=O)CNS(=O)(=O)C(F)(F)F)C2"
  Reported endpoint: "inhibition at 1 µM"
  Value measured: 59
- Smiles record: "N#Cc1cccc(N2Cc3nn(-c4ccccc4OC(F)(F)F)c(-c4ccc(Cl)cc4)c3C2)c1"
  Reported endpoint: "inhibition at 1 µM"
  Value measured: 52
- Smiles record: "COC(=O)c1ccc(N2Cc3nn(-c4ccccc4OC(F)(F)F)c(-c4ccc(Cl)cc4)c3C2)cc1"
  Reported endpoint: "inhibition at 1 µM"
  Value measured: 64
